Attribution: the nanobody polyreactivity screen of Harvey et al. (2022)

test: yeast display, Sf9 membrane polyspecificity reagent, FACS + sequencing; frameworks hold sequencing errors
observable: polyreactivity (PSR sort gate)

Examples from the recorded data:
1) QVQLVESGGGIVQAGRSLRLSCPASGLIFGPYTMGWYRQAPGKERELVAAISRSGGITYYADSVKGRFTISRDNATNTVYLQMNSLKPEDTAVYYCAARLVRESEPLGYWGQGTQVTLSS    high polyreactivity
2) QVQLVESGGGLVQAGGSLRLSCAASGGIFYYYAMGWYRQAPGKERELVAAISWSGGSTYYADSVKGRFTISRDNAKNTVYLQMNSLKPEDPAVYYCAPYSDFHYAQLEYDYWGQGTQVTVSS    low polyreactivity
3) QVQLVESGGGLVQAGGILRLSCASSVTFFMGWYRQAPGKEWELVAGISISDVSTYYADSVKGRFTISRDNAKNTVYLQMNSLKPEDTAVYYCAAEFYPTTGFDYWGQGTQVTVSS    low polyreactivity
4) QVQLVESGGGLVQAGGSLRLSCAASGLLFGRNVMGWYRQGPGKERELVAAISWSGGRTYYADSVKGRFTISRDNAKNTVYLQMNSLKPEDTAVYYCAADDGPGFDYWGQGTQVTESS    high polyreactivity
5) QVQLVESGGGLVQAGGSLRLSCAASGSIFYRYAMGWYRQAPGKERELVASISSGVSTNYADSVKGRFTISRDNAKNTVYLQMNSLKPEDTAVYYCAAYYRGWSSSYWYPAYNYWGQGTQVTVSS    low polyreactivity
6) QVQLVESGRGLVQAGGSLRLSCAASGSTFQSNAMGWYRQATGKERELVAAIDQSGGSTYYADSVKGRFTISRHNAKNTVYLQMNSLKPEDSAVYYCAAEYYYPQQPRKWYGYWGQGTQVTVSS    high polyreactivity
7) QVQLVESGGGLVQAGGSLRLSCAASGSIFRTYVMGWYRQAPGKERELVAAITASGGRTYYADSVKGRFTISRDNAKNSVYLQMNSLKPEDTAVYYCAAVSRGRYADSFDHWGQGTQVTVSS    high polyreactivity
8) QVQLVESGGGLVQAGGSLRLSCAASGFIFYDNAMGWYRQAPGKERELVAAIDWSGDSTYYADSVKGRFTISRDNAKNTVYLQMNSLKPEDTAVYYCAADSQDPGDYYLFDYWGQGTQVTVSS    low polyreactivity
9) QVQLVESGGGLVQAGGSLRLSCAASGRTFSVNAMGWYRQAPGKERELVAAISWDGGSTYYADSVKGRFTISRDNAKNTVYLQMNSLKPEDTAVYYCNQDLYYAYDYWGQGTQVTVSS    low polyreactivity
10) QVQLVESGGGLVQAGGSLRLSCDASGSILVAYAIGWYRQAPGKEREFVAAISSVGNTYYADSVKGRFTISRDNAKNTVYLQMNSLKPEDTAVYYCNAVYRVWYAEWSTVGSPHDYWGQGTQVTVSS    low polyreactivity

Can you share its polyreactivity (PSR sort gate)? I mean this sequence: `QVQLVESGGGLVQAGGSLRIRCAASGRIFNQYAMGWYRQAPGKERELVASITQRGGRTYYADSVKGRFTISRDNAKNTVYLQMNSLKPEDTAVYYCAKQCYYVTARTGYDYWGQGTQVTVSS`
high polyreactivity

====

assay: yeast display, Sf9 membrane polyspecificity reagent, FACS + sequencing; frameworks hold sequencing errors
observable: polyreactivity (PSR sort gate)

1. QVQLVESAGGLVQAGGSLRLSCAASGSTFYFNAMGWYRQAPGKERELVAAISGGGGTNYADSVKGRFTISRDNAKNTVYLQMTSLKPEDTAVYYCAARNRGLRLSNYFGGNYNRDYWGQGTQVTVSS    low polyreactivity
2. QVQLVESGGGLVQAGGSLRLSCAASGRIFHVYAMGWYRQAPGKERELVAAISSGDRTYYADSVNGRFIISRDNAKNTVYLQMNSLKPEDTAVYYCWLYPAAVSNYWGQGTQVTVSS    low polyreactivity
3. QVQLVESGGGLLQAGGSLRLSCAATGFIFWYYAMGWYRQAPGKEREFVADISSGGSTNYADSVKGRFTISRDNAKNTVYLQMNSLKPEDTAVYDCSKDNYPYHSTVLAVIYDYWGHGTQVTVSS    low polyreactivity
